system: p38-beta; construct: gene MAPK11; conditions: concentration: 1 μM, replicates: in singlicate; n = 1;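 further: KINOMEscan kinase panel screen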
Please go through the items and note down their %Inh.
One number for each entry, in %.

Before answering, review these 3 worked examples.
- compound: "FC(F)(F)c1ccc(-c2ncn(CCCN3CCOCC3)c2-c2ccncc2)cc1 [SB-217780]"
  measured-on: "p38-beta"
  %Inh, %: 5
- compound: "OCCCNc1nccc(-c2c(-c3cccc(C(F)(F)F)c3)nn3cc(C(F)(F)F)ccc23)n1 [GW630813]"
  measured-on: "p38-beta"
  %Inh, %: 30
- compound: "COc1cc(Nc2nccc(N3CCC(NC(=O)C(C)c4ccc(Cl)cc4)C3)n2)cc(OC)c1OC (stereo not drawn) [GSK1379757]"
  measured-on: "p38-beta"
  %Inh, %: 0

Batch lookup, %Inh per entry.
1. Cc1ccc(-c2ccc3c(ccc4sc5c(c43)NC[C@@H](C)N=C5N(C)C)n2)cn1
2. COc1ccc(-c2cc3c(C)nc(N)nc3n([C@H]3CC[C@H](O)CC3)c2=O)cn1
3. Cc1nnc(-c2ccc(C)c(-c3ccc(C(=O)O)cc3)c2)o1 [GW608005]
4. COc1cccc(-n2cnc3c(N)ncnc32)c1 [SKF-97416]
5. CCn1c(-c2nonc2N)nc2ccccc21 [SB-693162/GW549034]
6. COc1cc2ncn(-c3cc(OCCCc4ccccc4)c(C(N)=O)s3)c2cc1OC [GSK205189]

Response:
0
0
0
22
1
0

====

Please go through the items and note down their %Inh.
test system: PIK3CB; conditions: concentration: 1 μM, replicates: in singlicate; n = 1
Numbers only, in %.

Batch lookup, %Inh per entry.
1. CN1C(=O)C(Nc2cc(Cl)c(O)c(Cl)c2)=C(c2ccc(Cl)cc2)C1=O
2. COc1cccc(-n2cnc3c(N)ncnc32)c1
3. Fc1cccc(CSc2nnc(-c3ccc4c(c3)CCO4)o2)c1
4. CCC(=O)c1c(-c2ccccc2)c2cc(Cl)ccc2c(=O)n1Cc1cc(S(C)(=O)=O)n(CC(F)F)n1
5. CCS(=O)c1ccc(-c2coc3ccc(-c4nnc(C)o4)cc23)cc1 (stereo not drawn)
6. Nc1ncnc2c1ncn2-c1ccc(Cl)cc1

Response:
1: 0; 2: 32; 3: 14; 4: 16; 5: 32; 6: 0

====

tested on: MEK4; construct: gene MAP2K4; conditions: concentration: 1 μM, replicates: in singlicate; n = 1
property: %Inh (%)
Answers are plain numbers, in %.

Before answering, review these 6 worked examples.
- compound: "COc1ccc(Nc2nccc(N3CCC(NS(=O)(=O)c4ccc(NC(C)=O)cc4)C3)n2)cc1 (stereo not shown)"
  %Inh / %: 5
- compound: "OCCCNc1nccc(-c2c(-c3cccc(C(F)(F)F)c3)nn3cc(C(F)(F)F)ccc23)n1"
  %Inh / %: 0
- compound: "Nc1nc(N)c2nc(-c3ccccc3)[nH]c2n1"
  %Inh / %: 1
- compound: "CCC(=O)c1c(-c2ccccc2)c2cc(Cl)ccc2c(=O)n1Cc1cc(S(C)(=O)=O)n(CCC(C)(C)O)n1"
  %Inh / %: 40
- compound: "CCC(=O)c1c(-c2ccccc2)c2cc(Cl)ccc2c(=O)n1Cc1cc(S(C)(=O)=O)n(CC(F)F)n1"
  %Inh / %: 18
- compound: "Nc1ncnc2c1ncn2-c1cccc2ccccc12"
  %Inh / %: 8

Batch lookup, %Inh per entry.
1. COc1ccc(-c2coc3ccc(-c4nnc(SCc5cccc(C#N)c5)o4)cc23)cc1
2. CCCC(=O)Nc1n[nH]c2ncc(-c3cccc4ccccc34)cc12
3. Nc1nc(-c2ccccc2F)c(-c2ccnc3ccccc23)s1
4. COc1ccc(CNC(=O)NC2CCN(c3ccnc(Nc4ccc(F)cc4)n3)C2)cc1 (stereo not shown)

Response:
38
0
40
28

Batch lookup, %Inh per entry.
1. Cc1nnc(-c2ccc3ncn(-c4ccc(S(C)=O)cc4)c3c2)o1 (stereo not shown)
2. O=C(Nc1ccc2c(c1)OCO2)NC1CCN(c2ccnc(NCc3ccc(F)cc3)n2)CC1
3. CCn1c(-c2nonc2N)nc2ccccc21
4. O=c1cc(N2CCOCC2)nc2n(Cc3ccc(F)c(Cl)c3)ccn12
5. Cl.NS(=O)(=O)c1cccc(Nc2cc(-c3ccc(F)cc3)n[nH]2)c1
6. CN(C)c1cc(-c2ccc3c(N)n[nH]c3c2)nc(N)n1

Response:
1. 8
2. 0
3. 48
4. 5
5. 27
6. 0

Batch lookup, %Inh per entry.
1. COc1cc(Nc2ccnc3ccc(C(F)(F)F)cc23)cc(OC)c1OC
2. Cc1c(Cn2c(C)nn3c(=O)cc(N4CCO[C@H](C)C4)nc23)cccc1C(F)(F)F
3. O=C(Nc1n[nH]c2nc(-c3ccccc3)c(Br)cc12)C1CC1

Response:
32
12
21

====

tested on: CAMK1; conditions: concentration: 1 μM, replicates: in singlicate; n = 1
Please go through the items and note down their %Inh.
One number for each entry, in %.

- molecule: "COc1cc2nccc(Nc3ccc(OCc4ccc(NC(C)=O)cc4)cc3)c2cc1OC.Cl"
  property: "%Inh"
  endpoint-result: 5
- molecule: "Nc1nccc2scc(-c3ccc4c(c3)CCN4C(=O)Cc3ccccc3)c12"
  property: "%Inh"
  endpoint-result: 9

Batch lookup, %Inh per entry.
1. Cc1nnc(-c2ccc(C)c(-c3ccc(C(=O)O)cc3)c2)o1
2. Cc1nnc(-c2ccc3ncn(-c4ccc(S(C)=O)cc4)c3c2)o1 (stereo not shown)
3. CN1C(=O)C(Nc2ccccc2)=C(c2ccccc2)C1=O
4. CCC(=O)c1c(-c2ccccc2)c2cc(Cl)ccc2c(=O)n1Cc1cc(S(C)(=O)=O)n(CC(F)F)n1
5. COc1cc2ncn(-c3cc(OCc4ccncc4Br)c(C(N)=O)s3)c2cc1OC
6. COc1cc2ncn(-c3cc(OCc4ccncc4)c(C(N)=O)s3)c2cc1OC
7. COc1ccc(-c2coc3ccc(-c4nnc(SCc5cccc(C#N)c5)o4)cc23)cc1

Response:
[2, 11, 0, 0, 0, 24, 26]

Batch lookup, %Inh per entry.
1. Cc1c(Cn2c(C)nn3c(=O)cc(N4CCO[C@H](C)C4)nc23)cccc1C(F)(F)F
2. Cc1cccc(-c2nc(Nc3ccc4c(cnn4C)c3)c3ccccc3n2)n1
3. O=C1NC(=O)C(c2ccccc2)=C1Nc1cccc(O)c1
4. COc1cc(Nc2nccc(N3CCC(NC(=O)C4COc5ccccc5O4)C3)n2)cc(OC)c1OC (stereo not shown)
5. COc1cccc(-n2cnc3c(N)ncnc32)c1
6. CCC(=O)c1c(-c2ccccc2)c2cc(Cl)ccc2c(=O)n1Cc1cc(S(C)(=O)=O)n(CCC(C)(C)O)n1
7. COc1cc2ncn(-c3cc(OCc4ccc(S(C)(=O)=O)cc4)c(C(N)=O)s3)c2cc1OC
8. COC(=O)c1c(-c2ccccc2)c2cc(Br)ccc2c(=O)n1Cc1ccc(NC(=O)CCC(=O)O)cc1

Response:
1. 7
2. 10
3. 0
4. 21
5. 16
6. 7
7. 0
8. 12

Batch lookup, %Inh per entry.
1. CCc1ccc(-c2ccc3c(c2)-c2nn(C)cc2S(=O)(=O)N3C)cc1
2. Cc1ccccc1COc1cc(-n2cnc3cc(Cl)ccc32)sc1C(N)=O
3. Cn1c(=O)c(F)c(Nc2ccc(I)cc2F)c2c(=O)n(OC[C@H](O)CO)cnc21
4. C[C@@H]1CC[C@H](C(=O)NC2CCCCC2)CN1c1cc(-c2ccc3c(N)n[nH]c3c2)nc(N)n1
5. Nc1ncnc2c1ncn2-c1cccc2ccccc12
6. Nc1ncnc2c1ncn2-c1ccc(Cl)cc1

Response:
[2, 0, 0, 35, 20, 5]

Batch lookup, %Inh per entry.
1. CCCNC(=O)Nc1ccc(Oc2ncnc3ccn(C)c23)cc1
2. COc1cccc(C2=C(Nc3cccc(C(=O)O)c3)C(=O)NC2=O)c1
3. Cl.c1ccc(Cn2cnc3cc(Nc4ncnc5ccccc45)ccc32)cc1
4. COc1cc2ncn(-c3cc(OCCCc4ccccc4)c(C(N)=O)s3)c2cc1OC

Response:
1. 13
2. 3
3. 0
4. 14

====

Please go through the items and note down their %Inh.
test system: MARK1; settings: concentration: 1 μM, replicates: in singlicate; n = 1
One number for each entry, in %.

Before answering, review these 5 worked examples.
- compound: "CCS(=O)(=O)c1ccc(OC)c(Nc2ncc(-c3ccc(F)cc3)o2)c1.Cl"
  endpoint-result: 0
- compound: "COc1cc2nccc(Nc3cccc(Oc4ccccc4)c3)c2cc1OC.Cl"
  endpoint-result: 0
- compound: "COc1ccc(Nc2nccc(N3CCC(NS(=O)(=O)c4ccc(NC(C)=O)cc4)C3)n2)cc1 (stereo not drawn)"
  endpoint-result: 0
- compound: "COc1cc2ncn(-c3cc(OCc4ccncc4)c(C(N)=O)s3)c2cc1OC"
  endpoint-result: 0
- compound: "COc1ccc(-c2coc3ccc(-c4nnc(SCc5cccc(C#N)c5)o4)cc23)cc1"
  endpoint-result: 20

Batch lookup, %Inh per entry.
1. Cn1c(=O)c(F)c(Nc2ccc(I)cc2F)c2c(=O)n(OC[C@H](O)CO)cnc21
2. Nc1nccc2scc(-c3ccc4c(c3)CCN4C(=O)Cc3ccccc3)c12
3. CCCNC(=O)Nc1ccc(Oc2ncnc3ccn(C)c23)cc1
4. Nc1n[nH]c2ncc(-c3ccccc3)cc12

Response:
1: 0; 2: 0; 3: 6; 4: 0
